Target: UniProt:P01721
Assay: Unlabeled LC Protease Sensitivity Assay (proteinase K)
Format: biochemical
Conditions: small molecule 10 μM, WIL-FL 5 μM, proteinase K 50 nM, 2 hours at 37° C.
RESULT TYPE: Protection (fold protection of LC from protease)

Previously resolved entries follow.
CCN(CC)c1ccc2c(C)c(CCOC(=O)Nc3ccc(NC(C)=O)cn3)c(=O)oc2c1 : B (3 ≤ B < 0.6)
CCN(CC)c1ccc2c(C)c(CN3C(=O)CNC3=O)c(=O)oc2c1 : B (3 ≤ B < 0.6)
CCN(CC)c1ccc2c(CCCOC(=O)NCc3cccc(S(N)(=O)=O)c3)cc(=O)oc2c1 : A (A < 0.3))
CCN(CC)c1ccc2c(O)cc(=O)oc2c1 : A (A < 0.3))

-- ask Find Protection (fold protection of LC from protease) (UniProt:P01721) for the entry CCN(CC)c1ccc2c(C)c(CCN3C(=O)NC4(CCN(C(=O)c5c[nH]cn5)CC4)C3=O)c(=O)oc2c1
-- reply B (3 ≤ B < 0.6)

----------
Biological target: WIL-FL (Homo sapiens)
Test: Unlabeled LC Protease Sensitivity Assay (proteinase K)
Format: biochemical
Conditions: small molecule 10 μM, WIL-FL 5 μM, proteinase K 50 nM, 2 hours at 37° C.
RESULT TYPE: Protection (fold protection of LC from protease)

Previously resolved entries follow.
CCN(CC)c1ccc2c(C)c(CCOC(=O)NCc3cncc(NC(C)=O)c3)c(=O)oc2c1 : B (3 ≤ B < 0.6)
CCN(CC)c1ccc2c(C)c(CCOC(=O)NCc3ccccn3)c(=O)oc2c1 : B (3 ≤ B < 0.6)
Cc1cc(=O)oc2cc(OC(C)Cc3ccccc3)ccc12 (centres unmarked) : A (A < 0.3))
CCN(CC)c1ccc2c(C)c(CCOC(=O)NCCc3cnc[nH]3)c(=O)oc2c1 : B (3 ≤ B < 0.6)

-- ask Find Protection (fold protection of LC from protease) (WIL-FL (Homo sapiens)) for the entry Cc1cc(=O)oc2cc(C(=O)Nc3cc(Cl)c(O)c(Cl)c3)ccc12
-- reply A (A < 0.3))

-- ask // query: CCN(CC)c1ccc2c(C)c(CCNC(=O)NCc3cccc(CCC(=O)OC)c3)c(=O)oc2c1
-- reply B (3 ≤ B < 0.6)

-- ask // query: CCC(C)Oc1ccc2c(C)cc(=O)oc2c1 (centres unmarked) [Compound 32, 7-(sec-butoxy)-4-methyl-2H-chromen-2-one]
-- reply A (A < 0.3))

-- ask // query: CCN(CC)c1ccc2c(C)c(CCOC(=O)N(C)CCc3cccnc3)c(=O)oc2c1
-- reply A (A < 0.3))

-- ask // query: Cc1cc(=O)oc2cc(N(C)CC3CC3)ccc12
-- reply A (A < 0.3))

----------
Tested on: WIL-FL*
Experiment: FP artefact counterscreen (compounds added after 24 h of proteinase K treatment)
Type: biochemical, human
Design: concentration or dose not given beside the values
Conditions: compound added after 24 h PK treatment; mean ± sd, n=3
RESULT TYPE: Counterscreen activity (%)
Kindly provide the numeric value in % only, without the unit symbol.

-- ask Find Counterscreen activity (%) (WIL-FL*) for the entry CCN(CC)c1ccc2c(CN3CCOCC3)cc(=O)oc2c1 [Compound 13]
-- reply −4.10

-- ask // query: CCOC(=O)Cc1c(C)c2ccc(N(CC)CC)cc2oc1=O [Compound 2]
-- reply −4.13

-- ask // query: CC(C)CC1NC(=O)N(CC(=O)Nc2ccc(C(F)(F)F)cc2)C1=O (racemic) [Compound 8]
-- reply −2.05

-- ask // query: CCN(CC)c1ccc2c(C)c(Cl)c(=O)oc2c1 [Compound 10]
-- reply −1.54

-- ask // query: CCN(CC)c1ccc2c(C)c(CN3CCOCC3)c(=O)oc2c1 [Compound 12]
-- reply 0.41

-- ask // query: CCN(CC)c1ccc2ccc(=O)oc2c1 [Compound 9]
-- reply −3.45

-- ask // query: CC(Oc1ccc(/C=C(\C#N)C(N)=O)cc1)c1ccccc1 (stereo not shown) [Compound 4]
-- reply −7.4

-- ask // query: Cc1cc(=O)oc2cc(OC(C)c3ccccc3)ccc12 (stereo not shown) [Compound 3]
-- reply −2.52

-- ask // query: CC(Oc1ccc2ccc(=O)oc2c1)c1ccccc1 (stereo not shown) [Compound 15]
-- reply −4.35

-- ask // query: CC1CCCCC12NC(=O)N(CC(=O)Nc1ccc(C(F)(F)F)cc1)C2=O (stereo not shown) [Compound 7]
-- reply 2.51
